System: MDA-MB-468
protocol description: Antiproliferative activity against human MDA-MB-468 cells assessed as cell growth at 10^-4 M after 48 hrs by sulforhodamine B assay
Assay type: functional
applied conditions: MDA-MB-468, 48 h, read-out: Activity
attribute measured: growth at 100 µM (%)
Give just the number in %; leave the unit off.

Worked examples follow.
| smiles repr | growth at 100 µM, % |
| --- | --- |
| CNC(=O)c1cc(Oc2ccc3nc(NC(=O)Nc4cc(C(F)(F)F)cc(C(F)(F)F)c4)sc3c2)ccn1 | -75 |
| CNC(=O)c1cc(Oc2ccc3nc(NC(=O)Nc4ccc(Cl)c(Cl)c4)sc3c2)ccn1 | -44 |
| CNC(=O)c1cc(Oc2ccc3nc(NC(=O)c4cc(C(F)(F)F)cc(C(F)(F)F)c4)sc3c2)ccn1 | -30 |

Here's the next entry for you.
Incoming: Report value: growth at 100 µM, system: MDA-MB-468, compound: CNC(=O)c1cc(Oc2ccc3nc(NC(=O)Nc4ccc(Cl)c(C(F)(F)F)c4)sc3c2)ccn1
Outgoing: -43
